B1: library; numbered along this chain (parent)
chain: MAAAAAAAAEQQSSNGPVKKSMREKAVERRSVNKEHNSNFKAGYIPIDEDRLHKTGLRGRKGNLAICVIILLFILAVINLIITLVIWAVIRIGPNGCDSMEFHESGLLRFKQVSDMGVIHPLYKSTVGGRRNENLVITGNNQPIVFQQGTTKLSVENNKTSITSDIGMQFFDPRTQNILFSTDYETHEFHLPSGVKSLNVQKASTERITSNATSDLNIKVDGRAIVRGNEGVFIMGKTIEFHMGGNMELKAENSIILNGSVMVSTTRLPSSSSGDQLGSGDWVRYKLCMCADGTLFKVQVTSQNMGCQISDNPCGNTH

variants of: B1; experiment: SGCB cell-surface expression functional score (HA stain, bin4 vs bin1, normalised to synonymous) (log10 ratio); higher = more cell-surface SGCB (functional)
Hi there, I'd appreciate the recorded SGCB cell-surface expression functional score (log10) for every entry that follows.

Need SGCB cell-surface expression functional score (log10), item E188W
-0.68

Need SGCB cell-surface expression functional score (log10), item T55H
0.01

Need SGCB cell-surface expression functional score (log10), item V226D
-1.82

Need SGCB cell-surface expression functional score (log10), item N217I
0.1

Need SGCB cell-surface expression functional score (log10), item K250H
0.87

Need SGCB cell-surface expression functional score (log10), item A224P
-1.81

Need SGCB cell-surface expression functional score (log10), item S21W
0.3

Need SGCB cell-surface expression functional score (log10), item G236T
-0.62

Need SGCB cell-surface expression functional score (log10), item I137W
-0.8

Need SGCB cell-surface expression functional score (log10), item A9M
0.67

Need SGCB cell-surface expression functional score (log10), item P143Q
-0.7

Need SGCB cell-surface expression functional score (log10), item F102K
-1.02

Need SGCB cell-surface expression functional score (log10), item W282L
0.08

Need SGCB cell-surface expression functional score (log10), item S197I
-0.04

Need SGCB cell-surface expression functional score (log10), item I92K
-1.31

Need SGCB cell-surface expression functional score (log10), item S214M
-0.57

Need SGCB cell-surface expression functional score (log10), item N304M
-1.75

Need SGCB cell-surface expression functional score (log10), item R51D
-0.06

Need SGCB cell-surface expression functional score (log10), item H53F
-0.19

Need SGCB cell-surface expression functional score (log10), item Q147G
-0.41

Need SGCB cell-surface expression functional score (log10), item S272M
-1.59

Need SGCB cell-surface expression functional score (log10), item T265S
0.4

Need SGCB cell-surface expression functional score (log10), item T151F
-1

Need SGCB cell-surface expression functional score (log10), item I256F
0.01

Need SGCB cell-surface expression functional score (log10), item R29Y
0.23

Need SGCB cell-surface expression functional score (log10), item Q308E
0.05

Need SGCB cell-surface expression functional score (log10), item F110Y
-0.99

Need SGCB cell-surface expression functional score (log10), item G228E
-0.84

Need SGCB cell-surface expression functional score (log10), item G43E
0.18

Need SGCB cell-surface expression functional score (log10), item V261L
0.42

Need SGCB cell-surface expression functional score (log10), item I256Y
0.42

Need SGCB cell-surface expression functional score (log10), item M262S
0.7

Need SGCB cell-surface expression functional score (log10), item I74G
0.2

Need SGCB cell-surface expression functional score (log10), item H120L
0.39

Need SGCB cell-surface expression functional score (log10), item M100A
-1.33

Need SGCB cell-surface expression functional score (log10), item G274H
-1.17

Need SGCB cell-surface expression functional score (log10), item S210V
-1.36

Need SGCB cell-surface expression functional score (log10), item G315S
-0.28

Need SGCB cell-surface expression functional score (log10), item K25H
-0.78

Need SGCB cell-surface expression functional score (log10), item G139F
-1.58

Need SGCB cell-surface expression functional score (log10), item M235T
0.37

Need SGCB cell-surface expression functional score (log10), item M168I
-0.24

Need SGCB cell-surface expression functional score (log10), item S197M
-1.08

Need SGCB cell-surface expression functional score (log10), item A7D
0.19

Need SGCB cell-surface expression functional score (log10), item S210A
0.29

Need SGCB cell-surface expression functional score (log10), item G306D
-0.69
